Molecular target: Acetylcholinesterase (Electrophorus electricus, UniProt O42275)
Sequence (O42275 whole entry): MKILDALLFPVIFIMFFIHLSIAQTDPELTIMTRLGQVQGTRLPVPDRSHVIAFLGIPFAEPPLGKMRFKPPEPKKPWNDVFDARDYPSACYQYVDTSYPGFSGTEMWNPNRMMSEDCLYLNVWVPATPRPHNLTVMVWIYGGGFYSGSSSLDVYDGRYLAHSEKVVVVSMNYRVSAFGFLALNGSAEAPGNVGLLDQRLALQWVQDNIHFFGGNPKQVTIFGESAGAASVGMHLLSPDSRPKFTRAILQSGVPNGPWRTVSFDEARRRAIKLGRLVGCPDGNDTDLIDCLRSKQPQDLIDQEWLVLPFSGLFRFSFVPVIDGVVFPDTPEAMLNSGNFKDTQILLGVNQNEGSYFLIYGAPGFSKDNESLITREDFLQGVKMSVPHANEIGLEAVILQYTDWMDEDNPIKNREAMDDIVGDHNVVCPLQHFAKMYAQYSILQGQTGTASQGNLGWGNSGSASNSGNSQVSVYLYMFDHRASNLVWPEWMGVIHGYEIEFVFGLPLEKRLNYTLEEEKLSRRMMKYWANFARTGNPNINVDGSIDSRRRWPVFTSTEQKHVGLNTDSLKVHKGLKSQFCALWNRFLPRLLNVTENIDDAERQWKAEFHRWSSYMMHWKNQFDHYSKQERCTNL
observable: Ki (nM)
# value in nM; strip the unit string

query: Entry Cc1ccc2oc(-c3ccc(OCCCCCCN4CCCCCC4)cc3)cc(=O)c2c1 : reported Ki = ?
result: 176

---

The reader will find reported inhibition values listed item by item below.
Target: Cholinesterase (Equus caballus) (UniProt P81908)
Experiment: Inhibition of equine serum BChE using butyrylthiocholine iodide as substrate at 10 uM preincubated with enzyme for 5 mins prior to substrate addition measured after 5 mins by Ellman's method relative to control

Worked set:
CCc1ccc(OCCCCCCN2CCC(C)CC2)cc1 = 75.1%
Clc1ccc(CCCOCCCN2CCCCC2)cc1 = 55.7%
C(=C\c1ccccc1)/CN1CCN(CCCOCCCc2ccccc2)CC1 = 37.8%
CCOc1ccccc1N1CCN(CCCOCCCc2ccccc2)CC1 = 46%
c1ccc(CCCOCCCN2CCN(Cc3ccccc3)CC2)cc1 = 33.9%

query: Entry O=C(c1ccccc1Cl)N1CCN(CCCOCC2CCC2)CC1 : reported inhibition = ?
result: 0%

query: Entry Cc1ccc2oc(-c3ccc(OCCCCCCN4CCCCCC4)cc3)cc(=O)c2c1 : reported inhibition = ?
result: 99.5%

query: Entry CCc1ccc(OCCCCCCN2CCCCCC2)cc1 : reported inhibition = ?
result: 85.7%

query: Entry O=C(c1ccc(OCCCN2CCN(c3ccccc3)CC2)cc1)C1CC1 : reported inhibition = ?
result: 11.2%

query: Entry Cc1ccc2oc(-c3ccc(OCCCCCCN4CCCCC4)cc3)cc(=O)c2c1 : reported inhibition = ?
result: 99.6%

query: Entry O=C(c1ccc(OCCCN2CCN(C/C=C/c3ccccc3)CC2)cc1)C1CC1 : reported inhibition = ?
result: 38.4%

query: Entry Cc1ccc2oc(-c3ccc(OCCCCCCN4CCCC(C)C4)cc3)cc(=O)c2c1 (stereo not drawn) : reported inhibition = ?
result: 99.4%

query: Entry CC1CCCN(CCCCCCOc2ccc3c(c2)C(=O)CC(c2ccccc2)O3)C1 (stereo not drawn) : reported inhibition = ?
result: 90.3%

---

Molecular target: UniProt:O42275
Test: Inhibition of electric eel AChE using acetylthiocholine iodide as substrate at 10 uM preincubated with enzyme for 5 mins prior to substrate addition measured after 5 mins by Ellman's method relative to control
Class boundaries, taken from values of inhibition, are as follows: Low: < 8%; Medium: ≥ 8% and < 30%; High: ≥ 30%

O=C(c1ccc(OCCCN2CCN(c3ccccc3)CC2)cc1)C1CC1 = Low
Cc1ccc2oc(-c3ccc(OCCCCCCN4CCCCC4)cc3)cc(=O)c2c1 = High
Cc1ccc2oc(-c3ccc(OCCCCCCN4CCCC(C)C4)cc3)cc(=O)c2c1 (stereo not drawn) = High
Clc1ccc(CCCOCCCN2CCCCC2)cc1 = Low
CCc1ccc(OCCCCCCN2CCC(C)CC2)cc1 = Medium

query: Assign a category based on measured inhibition for CC1CCCN(CCCCCCOc2ccc3c(c2)C(=O)CC(c2ccccc2)O3)C1 (stereo not drawn) and give only the class name.
result: High

query: Assign a category based on measured inhibition for Cc1ccc2oc(-c3ccc(OCCCCCCN4CCCCCC4)cc3)cc(=O)c2c1 and give only the class name.
result: High

query: Assign a category based on measured inhibition for c1ccc(CCCOCCCN2CCN(Cc3ccccc3)CC2)cc1 and give only the class name.
result: Medium

query: Assign a category based on measured inhibition for O=C(c1ccc(OCCCN2CCN(C/C=C/c3ccccc3)CC2)cc1)C1CC1 and give only the class name.
result: Medium

query: Assign a category based on measured inhibition for CCOc1ccccc1N1CCN(CCCOCCCc2ccccc2)CC1 and give only the class name.
result: Low

query: Assign a category based on measured inhibition for C(=C\c1ccccc1)/CN1CCN(CCCOCCCc2ccccc2)CC1 and give only the class name.
result: Low

query: Assign a category based on measured inhibition for O=C(c1ccccc1Cl)N1CCN(CCCOCC2CCC2)CC1 and give only the class name.
result: Low

---

Molecular target: Acetylcholinesterase (Homo sapiens, UniProt P22303)
Sequence (P22303 whole entry): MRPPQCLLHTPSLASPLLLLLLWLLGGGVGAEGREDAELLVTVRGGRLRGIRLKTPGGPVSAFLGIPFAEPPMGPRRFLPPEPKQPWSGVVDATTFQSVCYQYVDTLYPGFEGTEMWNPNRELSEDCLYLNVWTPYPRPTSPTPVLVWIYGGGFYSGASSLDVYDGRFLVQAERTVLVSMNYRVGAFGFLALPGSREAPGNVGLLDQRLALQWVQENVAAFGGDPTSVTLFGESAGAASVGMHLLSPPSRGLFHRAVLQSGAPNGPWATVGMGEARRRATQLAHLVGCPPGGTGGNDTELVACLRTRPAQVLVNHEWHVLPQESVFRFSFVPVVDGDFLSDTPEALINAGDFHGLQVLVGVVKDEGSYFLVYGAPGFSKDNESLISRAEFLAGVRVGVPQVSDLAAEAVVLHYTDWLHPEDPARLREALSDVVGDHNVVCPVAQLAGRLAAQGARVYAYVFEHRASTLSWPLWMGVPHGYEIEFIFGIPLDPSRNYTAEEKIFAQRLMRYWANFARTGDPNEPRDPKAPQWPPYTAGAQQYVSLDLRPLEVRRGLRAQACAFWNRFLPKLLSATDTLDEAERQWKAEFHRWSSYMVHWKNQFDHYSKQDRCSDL
Experiment: Inhibition of recombinant human AChE using acetylthiocholine iodide as substrate preincubated with enzyme for 5 mins prior to substrate addition measured after 5 mins by Ellman's method
observable: IC50 (nM)
# value in nM; strip the unit string

Cc1ccc2oc(-c3ccc(OCCCCCCN4CCCCCC4)cc3)cc(=O)c2c1 = 480

# input for lookup
query: Entry Cc1ccc2oc(-c3ccc(OCCCCCCN4CCCCC4)cc3)cc(=O)c2c1 : reported IC50 = ?
result: 360

---

Biological target: UniProt Q9Y5N1
Assay: Displacement of [125I]Iodoproxyfan from human histamine H3 receptor stably expressed in CHOK1 cells after 60 mins
Assay type: cell-based
observable: pKi
When answering, recall that pKi equals minus log10 of the concentration in mol/L, and write that number alone.

O=C(c1ccc(OCCCN2CCN(C/C=C/c3ccccc3)CC2)cc1)C1CC1 = 7.08

# input for lookup
query: Entry C(=C\c1ccccc1)/CN1CCN(CCCOCCCc2ccccc2)CC1 : reported pKi = ?
result: 6.16

---

Molecular target: Cholinesterase (Equus caballus)
Sequence (P81908 whole entry): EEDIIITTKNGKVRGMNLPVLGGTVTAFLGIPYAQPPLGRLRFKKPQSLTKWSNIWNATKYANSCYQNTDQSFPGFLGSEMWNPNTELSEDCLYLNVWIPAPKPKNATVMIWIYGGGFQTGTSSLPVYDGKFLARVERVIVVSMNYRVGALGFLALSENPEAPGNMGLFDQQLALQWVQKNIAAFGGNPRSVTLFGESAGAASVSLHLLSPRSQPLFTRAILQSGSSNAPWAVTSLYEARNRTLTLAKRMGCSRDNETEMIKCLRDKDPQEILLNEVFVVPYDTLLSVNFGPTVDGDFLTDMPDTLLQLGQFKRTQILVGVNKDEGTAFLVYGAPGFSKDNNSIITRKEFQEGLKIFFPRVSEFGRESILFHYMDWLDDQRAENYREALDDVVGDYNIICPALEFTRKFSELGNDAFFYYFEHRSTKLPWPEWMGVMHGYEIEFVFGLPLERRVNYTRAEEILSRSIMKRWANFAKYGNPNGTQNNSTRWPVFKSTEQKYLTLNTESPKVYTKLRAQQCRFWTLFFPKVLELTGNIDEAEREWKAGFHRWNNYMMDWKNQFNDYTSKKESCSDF
Test: Non-competitive inhibition of equine serum BChE using butyrylthiocholine iodide as substrate by Lineweaver-Burk plot analysis
observable: pKi
When answering, recall that pKi equals minus log10 of the concentration in mol/L, and write that number alone.

query: Entry Cc1ccc2oc(-c3ccc(OCCCCCCN4CCCCCC4)cc3)cc(=O)c2c1 : reported pKi = ?
result: 6.55

---

Target: UniProt:P81908
observable: IC50

Cc1ccc2oc(-c3ccc(OCCCCCCN4CCCC(C)C4)cc3)cc(=O)c2c1 (stereo unspecified) = 1090 nM
CC1CCCN(CCCCCCOc2ccc3c(c2)C(=O)CC(c2ccccc2)O3)C1 (stereo unspecified) = 1900 nM

query: Entry Cc1ccc2oc(-c3ccc(OCCCCCCN4CCCCC4)cc3)cc(=O)c2c1 : reported IC50 = ?
result: 760 nM

query: Entry Cc1ccc2oc(-c3ccc(OCCCCCCN4CCCCCC4)cc3)cc(=O)c2c1 : reported IC50 = ?
result: 440 nM

query: Entry CCc1ccc(OCCCCCCN2CCC(C)CC2)cc1 : reported IC50 = ?
result: 3920 nM

query: Entry CCc1ccc(OCCCCCCN2CCCCCC2)cc1 : reported IC50 = ?
result: 1900 nM

---

Reported pIC50 for target or system Acetylcholinesterase (Electrophorus electricus, UniProt O42275), by entry.
When answering, recall that pIC50 equals minus log10 of the concentration in mol/L, and write that number alone.

Worked set:
CC1CCCN(CCCCCCOc2ccc3c(c2)C(=O)CC(c2ccccc2)O3)C1 (centres undefined) = 6.10
Cc1ccc2oc(-c3ccc(OCCCCCCN4CCCC(C)C4)cc3)cc(=O)c2c1 (centres undefined) = 6.10
Cc1ccc2oc(-c3ccc(OCCCCCCN4CCCCC4)cc3)cc(=O)c2c1 = 6.30

# input for lookup
query: Entry Cc1ccc2oc(-c3ccc(OCCCCCCN4CCCCCC4)cc3)cc(=O)c2c1 : reported pIC50 = ?
result: 6.34

---

Molecular target: Acetylcholinesterase (Homo sapiens, UniProt P22303)
Assay: Non-competitive inhibition of recombinant human AChE using acetylthiocholine iodide as substrate by Lineweaver-Burk plot analysis
observable: pKi
When answering, recall that pKi equals minus log10 of the concentration in mol/L, and write that number alone.

query: Give the reported pKi for Cc1ccc2oc(-c3ccc(OCCCCCCN4CCCCC4)cc3)cc(=O)c2c1 (system: Acetylcholinesterase (Homo sapiens, UniProt P22303)).
result: 6.89

---

Target: Histamine H3 receptor (Homo sapiens, UniProt Q9Y5N1)
Sequence (Q9Y5N1 whole entry): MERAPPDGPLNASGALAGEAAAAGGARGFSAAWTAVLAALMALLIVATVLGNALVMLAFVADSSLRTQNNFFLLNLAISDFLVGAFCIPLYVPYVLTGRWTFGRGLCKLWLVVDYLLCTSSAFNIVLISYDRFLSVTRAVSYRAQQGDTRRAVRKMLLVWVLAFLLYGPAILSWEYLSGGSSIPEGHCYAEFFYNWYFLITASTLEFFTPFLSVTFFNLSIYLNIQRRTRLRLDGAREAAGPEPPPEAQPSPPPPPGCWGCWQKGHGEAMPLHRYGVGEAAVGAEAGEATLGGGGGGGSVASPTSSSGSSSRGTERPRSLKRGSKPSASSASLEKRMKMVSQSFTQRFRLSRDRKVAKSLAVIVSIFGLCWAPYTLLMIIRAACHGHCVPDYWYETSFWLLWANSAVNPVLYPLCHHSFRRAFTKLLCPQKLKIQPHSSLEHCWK
Test: Displacement of [125I]Iodoproxyfan from human histamine H3 receptor stably expressed in CHOK1 cells after 60 mins
Type: cell-based
pKi: −log10 of the molar value.
observable: pKi

Worked set:
CCOc1ccccc1N1CCN(CCCOCCCc2ccccc2)CC1 = < 6.00
O=C(c1ccccc1Cl)N1CCN(CCCOCC2CCC2)CC1 = < 6.00

# input for lookup
query: Entry c1ccc(CCCOCCCN2CCN(Cc3ccccc3)CC2)cc1 : reported pKi = ?
result: < 6.00
